Entry source: patent US20230091175A1

target: T1, human IL6 protein, His and GST tags (active) (GTX00094-pro: GeneTex, Inc.) (human, UniProt P05231 30-212, limits assumed); assay: SPR (Biacore 8K); affinity ratio with the original antibody as 1.0
T1 construct: Bought reagent; not shown: His and GST tags
Form field: KD ratio (one value per entry).
Please reply with the number alone, leaving off any unit.

// known answers, use as guide
- BINDER: "R3 variant of anti-IL-6 antibody (clone 44-15) (Fab, V domains shown, not shown: a dimerising Fc or GST, Light chain positions 63, 65, 67 (Chothia) changed to Arg; Fab) VH: DVQLQESGPGLVKPSQTVSLTCTVTGISITTGNYRWSWIRQFPGNKLEWIGYIYYSGAITYNPSLTSRTTITRDTSMNQFFLEMISLTAEDTATYYCARDRYDYAVDFWGQGTSVTVSS VL: DIQMTQSPASLSASVGETVTITCRSSENIYSFLTWFQQRQGKSPHLLVYYANTLAEGVPSRFRGRGRGTQFSLQINSLQPEDFGTYYCQHHYGTPWTFGGGTRLEIKR"
  KD ratio: 2.9
- BINDER: "R4 variant of anti-IL-6 antibody (clone 44-15) (Fab, V domains shown, not shown: a dimerising Fc or GST, Light chain positions 63, 65, 67, 70 (Chothia) changed to Arg; Fab) VH: DVQLQESGPGLVKPSQTVSLTCTVTGISITTGNYRWSWIRQFPGNKLEWIGYIYYSGAITYNPSLTSRTTITRDTSMNQFFLEMISLTAEDTATYYCARDRYDYAVDFWGQGTSVTVSS VL: DIQMTQSPASLSASVGETVTITCRSSENIYSFLTWFQQRQGKSPHLLVYYANTLAEGVPSRFRGRGRGTRFSLQINSLQPEDFGTYYCQHHYGTPWTFGGGTRLEIKR"
  KD ratio: 2.4

Which measured KD ratio value corresponds to R5 variant of anti-IL-6 antibody (clone 44-15) (Fab, V domains shown, not shown: a dimerising Fc or GST, Light chain positions 63, 65, 67, 70, 72 (Chothia) changed to Arg; Fab) VH: DVQLQESGPGLVKPSQTVSLTCTVTGISITTGNYRWSWIRQFPGNKLEWIGYIYYSGAITYNPSLTSRTTITRDTSMNQFFLEMISLTAEDTATYYCARDRYDYAVDFWGQGTSVTVSS VL: DIQMTQSPASLSASVGETVTITCRSSENIYSFLTWFQQRQGKSPHLLVYYANTLAEGVPSRFRGRGRGTRFRLQINSLQPEDFGTYYCQHHYGTPWTFGGGTRLEIKR ?
4.6

Which KD ratio value belongs to mouse anti-human IL-6 antibody (clone 44-15), original (unmodified) (Fab, V domains shown, not shown: a dimerising Fc or GST, Fab; the light entry holds only the variable domain; a His tag is implied by Ni-NTA purification but not described; also called Anti-IL-6 antibody (clone 44-15)) VH: DVQLQESGPGLVKPSQTVSLTCTVTGISITTGNYRWSWIRQFPGNKLEWIGYIYYSGAITYNPSLTSRTTITRDTSMNQFFLEMISLTAEDTATYYCARDRYDYAVDFWGQGTSVTVSS VL: DIQMTQSPASLSASVGETVTITCRSSENIYSFLTWFQQRQGKSPHLLVYYANTLAEGVPSRFSGSGSGTQFSLQINSLQPEDFGTYYCQHHYGTPWTFGGGTRLEIKR ?
1
